Reference source: the supplement of paper PMC10065799

For each of the sequences below, state its phosphorylation enrichment.
- TARGET OR SYSTEM: FGFR3 (UniProt P22607)
- Sequence (P22607 whole entry, looked up): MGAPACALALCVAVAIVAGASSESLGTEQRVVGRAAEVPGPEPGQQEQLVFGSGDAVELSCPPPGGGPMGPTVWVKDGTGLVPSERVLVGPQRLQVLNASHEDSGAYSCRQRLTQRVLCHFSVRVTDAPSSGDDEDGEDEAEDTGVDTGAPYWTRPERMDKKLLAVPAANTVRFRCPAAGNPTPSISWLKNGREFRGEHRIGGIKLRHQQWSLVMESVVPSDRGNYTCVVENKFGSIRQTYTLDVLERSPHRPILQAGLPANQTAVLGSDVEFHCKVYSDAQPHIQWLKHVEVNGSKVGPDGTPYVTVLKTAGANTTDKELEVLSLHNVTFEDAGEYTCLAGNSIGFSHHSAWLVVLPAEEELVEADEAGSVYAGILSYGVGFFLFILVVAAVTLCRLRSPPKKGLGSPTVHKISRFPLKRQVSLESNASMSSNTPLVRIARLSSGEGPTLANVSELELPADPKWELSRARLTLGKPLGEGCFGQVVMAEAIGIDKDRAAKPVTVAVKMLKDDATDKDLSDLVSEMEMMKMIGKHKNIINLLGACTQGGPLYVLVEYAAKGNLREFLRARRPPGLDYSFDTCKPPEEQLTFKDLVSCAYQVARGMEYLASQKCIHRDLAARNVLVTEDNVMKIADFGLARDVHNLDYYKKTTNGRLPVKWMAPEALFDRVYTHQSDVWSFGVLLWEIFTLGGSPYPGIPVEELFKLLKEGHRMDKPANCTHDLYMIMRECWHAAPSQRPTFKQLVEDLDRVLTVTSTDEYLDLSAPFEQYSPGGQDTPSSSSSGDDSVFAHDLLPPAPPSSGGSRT
- ASSAY NAME: phosphorylation enrichment, bacterial display (enrichment ratio); higher = better substrate or ligand; peptides without Tyr show the background

Worked cases, phosphorylation enrichment given:
[Q] Give its phosphorylation enrichment value. Item: KKFVPYFDLFM [IPO5_Y530_E525K_YF]
[A] 0.898

[Q] Give its phosphorylation enrichment value. Item: RQQQDYWLKDV [ANPEP_Y600_I603K]
[A] 0.741

[Q] Give its phosphorylation enrichment value. Item: KVMANYMYKAG [MAML2_Y513]
[A] 0.512

[Q] Give its phosphorylation enrichment value. Item: KLFFIYTSGTT [SLC27A4_Y245_YF]
[A] 0.813

[Q] Give its phosphorylation enrichment value. Item: YLRTGYSIPYG [TGM1_Y370_V372I]
[A] 0.574

Please state phosphorylation enrichment for every sequence in the list that follows.
1. ARKCKYFKKHE [NFIX_Y40_R38C]
2. SILAVYSKDNF [PANK2_Y400_YF]
3. DVCKNYTEAKD [ALB_Y343_A344T]
4. HILQLYRCREE [ALPK3_Y342_T338I]

[A]
0.565
0.709
0.613
0.871

Please state phosphorylation enrichment for every sequence in the list that follows.
1. RAVLLYEFVGK [NATD1_Y45_YF]
2. YDKEYYSVHNK [MET_Y1235]
3. TLLPDYEDEEE [ZNF830_Y159_S154T]
4. GESVSYLFSHV [PRPS1_Y311]
5. QLDQHYLLVPE [DDX49_Y223_R222H]
6. SSTAMYSAPGR [PSMB1_Y8]
7. YVPSNYVAEDR [FRK_Y104_I100V]

[A]
2.29
2.95
0.938
0.588
2.09
0.464
0.632

====

- Test system: c-Abl (mouse)
- ASSAY NAME: phosphorylation enrichment, bacterial display (enrichment ratio); higher = better substrate or ligand; peptides without Tyr show the background
Classification field. Basis: phosphorylation enrichment. Definitions: lower band = under 0.6, central band = from 0.6 up to 0.7, upper band = 0.7 and over

[Q] Assign a category based on measured phosphorylation enrichment for CTTNHYNFMCN [TP53_Y234_I232N_YF] and give only the class name.
[A] lower band

[Q] Assign a category based on measured phosphorylation enrichment for LLKKIYLMLDN [STAT1_Y203_M202I] and give only the class name.
[A] upper band

[Q] Assign a category based on measured phosphorylation enrichment for HSLHDYKEALM [ADA2_Y337] and give only the class name.
[A] central band

Next:
[Q] Assign a category based on measured phosphorylation enrichment for FETSHYPASPD [CTNND2_Y1217_YF] and give only the class name.
[A] lower band

[Q] Assign a category based on measured phosphorylation enrichment for DYLEKYYKFGC [NNMT_Y24_S29C] and give only the class name.
[A] upper band

[Q] Assign a category based on measured phosphorylation enrichment for AKRKNYAPVAM [CFAP47_Y557] and give only the class name.
[A] lower band

====

- TARGET OR SYSTEM: c-Src SH2
- ASSAY NAME: SH2 binding enrichment of the phosphorylated peptide, bacterial display (enrichment ratio); higher = better substrate or ligand; peptides without Tyr show the background
SH2 binding enrichment below 0.5 gives condition not met; SH2 binding enrichment at or above it gives condition met.

[Q] In plain terms: is recorded SH2 binding enrichment at least 0.5 for IFGVSYGEYRY [CFTR_Y512_D513G] ?
[A] condition met

[Q] In plain terms: is recorded SH2 binding enrichment at least 0.5 for KIDAKYKKKIK [WDR19_Y1230_E1235K] ?
[A] condition met

Next:
[Q] In plain terms: is recorded SH2 binding enrichment at least 0.5 for PSQRCYVYYYS [PTEN_Y174_R173C] ?
[A] condition not met

====

- TARGET OR SYSTEM: Grb2 SH2 (UniProt P62993)
- Sequence (P62993 whole entry, looked up): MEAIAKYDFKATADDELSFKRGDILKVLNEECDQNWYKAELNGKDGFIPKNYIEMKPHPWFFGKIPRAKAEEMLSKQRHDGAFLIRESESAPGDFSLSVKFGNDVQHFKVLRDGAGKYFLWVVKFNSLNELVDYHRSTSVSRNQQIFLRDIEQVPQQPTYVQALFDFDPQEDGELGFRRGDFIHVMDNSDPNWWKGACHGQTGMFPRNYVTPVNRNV
- ASSAY NAME: SH2 binding enrichment of the phosphorylated peptide, bacterial display (enrichment ratio); higher = better substrate or ligand; peptides without Tyr show the background
SH2 binding enrichment below 1 gives F; SH2 binding enrichment at or above it gives T.

Previously resolved entries follow.
[Q] In plain terms: is recorded SH2 binding enrichment at least 1 for KLKRSYSSPDI [USP8_Y717] ?
[A] F

[Q] In plain terms: is recorded SH2 binding enrichment at least 1 for ENRLDYGSAWA [AR_Y395_P392R] ?
[A] F

[Q] In plain terms: is recorded SH2 binding enrichment at least 1 for DPLLTYQFPPK [LMNA_Y481_R482Q] ?
[A] T

[Q] In plain terms: is recorded SH2 binding enrichment at least 1 for TTPFNYSFIFK [RAB14_Y8_A4T_YF] ?
[A] T

Next:
[Q] In plain terms: is recorded SH2 binding enrichment at least 1 for TDKLFYIFTPG [SLC27A4_Y243_S247P_YF] ?
[A] F

[Q] In plain terms: is recorded SH2 binding enrichment at least 1 for IFKAAYFGVFD [SLC25A4_Y191_R188K_YF] ?
[A] T

[Q] In plain terms: is recorded SH2 binding enrichment at least 1 for ERPGVYTNVVE [F11_Y608] ?
[A] T

[Q] In plain terms: is recorded SH2 binding enrichment at least 1 for DFTEAYNSKIK [CLK1_Y305_P307S_YF] ?
[A] F

====

- Test system: c-Abl (mouse)
- ASSAY NAME: phosphorylation enrichment, bacterial display (enrichment ratio); higher = better substrate or ligand; peptides without Tyr show the background
OBSERVED PROPERTY: phosphorylation enrichment
Numbers only.

[Q] Give its phosphorylation enrichment value. Item: HSFQCYGQNEA [ENTPD3_Y262_R264Q]
[A] 0.793

[Q] Give its phosphorylation enrichment value. Item: MKTISYETLIA [DOCK10_Y1350]
[A] 0.526

[Q] Give its phosphorylation enrichment value. Item: TSHKGYVAFLE [CARD9_Y76_G72S]
[A] 0.602

[Q] Give its phosphorylation enrichment value. Item: RRERDYTNLPS [CSF1R_Y923]
[A] 0.692

[Q] Give its phosphorylation enrichment value. Item: LLFRVYGLESL [INSR_Y94]
[A] 1.15

[Q] Give its phosphorylation enrichment value. Item: LEIETYRRLLD [KRT12_Y429]
[A] 0.656

[Q] Give its phosphorylation enrichment value. Item: VVSMNYRVGAL [BCHE_Y174]
[A] 0.556

[Q] Give its phosphorylation enrichment value. Item: GSQERYFELVE [TSC2_Y407]
[A] 0.813

[Q] Give its phosphorylation enrichment value. Item: TQRPYYKGGGG [TYROBP_Y112]
[A] 0.573

[Q] Give its phosphorylation enrichment value. Item: LINLKYSVEEE [PCDH19_Y27]
[A] 1.12

Please state phosphorylation enrichment for every sequence in the list that follows.
1. QEGPEYWDGET [HLA-A_Y83_Q86G]
2. FSIAQYCCRMG [LRRK2_Y2023_G2019S_YF]

[A]
0.964
1.03

Please state phosphorylation enrichment for every sequence in the list that follows.
1. ESDFTYSSSFE [SRPK2_Y427_YF]
2. KIDAKYKKKIK [WDR19_Y1230_E1235K]
3. QNTADYYDLYG [PTPN11_Y62_G60A]
4. GGTTLYPGIAD [ACTC1_Y308_M307L]
5. LRYDSYWSYCN [SLC20A2_Y433_S434W]
6. HRTLVYGGIFL [FBP1_Y259]
7. TFVKSYTIHFS [F5_Y2153_M2148T_YF]

[A]
1. 0.614
2. 0.8
3. 0.722
4. 0.484
5. 1.68
6. 1.06
7. 0.873

====

- TARGET OR SYSTEM: Fyn (UniProt P06241)
- Sequence (P06241 whole entry, looked up): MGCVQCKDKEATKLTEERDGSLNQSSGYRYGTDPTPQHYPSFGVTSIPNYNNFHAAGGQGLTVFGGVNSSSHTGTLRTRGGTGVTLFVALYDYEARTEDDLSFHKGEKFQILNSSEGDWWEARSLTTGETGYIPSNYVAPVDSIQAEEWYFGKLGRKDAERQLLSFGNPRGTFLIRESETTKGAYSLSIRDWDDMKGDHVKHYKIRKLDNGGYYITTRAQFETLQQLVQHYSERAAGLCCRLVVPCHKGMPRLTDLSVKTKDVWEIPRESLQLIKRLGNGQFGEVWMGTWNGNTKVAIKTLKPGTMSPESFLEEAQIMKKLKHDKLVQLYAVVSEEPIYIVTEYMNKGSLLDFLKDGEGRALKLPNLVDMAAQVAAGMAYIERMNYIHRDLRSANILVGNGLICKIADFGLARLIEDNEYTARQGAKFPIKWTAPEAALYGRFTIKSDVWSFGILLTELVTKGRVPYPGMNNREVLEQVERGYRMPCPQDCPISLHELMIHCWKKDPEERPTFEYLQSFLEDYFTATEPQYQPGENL
- ASSAY NAME: phosphorylation enrichment, bacterial display (enrichment ratio); higher = better substrate or ligand; peptides without Tyr show the background
OBSERVED PROPERTY: phosphorylation enrichment
Give bare numbers.

Worked cases, phosphorylation enrichment given:
[Q] Give its phosphorylation enrichment value. Item: VDTRAYFTSAT [MT-CO1_Y304]
[A] 0.39

[Q] Give its phosphorylation enrichment value. Item: KPPPSYESEEE [BRD4_Y599_T598S]
[A] 0.639

[Q] Give its phosphorylation enrichment value. Item: TQNGVYSAANF [DDX5_Y535_YF]
[A] 7.62

[Q] Give its phosphorylation enrichment value. Item: HNLPIYEGFAL [ACTA1_Y168_V165L_YF]
[A] 14.1

Please state phosphorylation enrichment for every sequence in the list that follows.
1. YYHCTYKKRMI [CLEC12A_Y242]
2. WVFNHYRWFIW [BRCA2_Y2624_I2627F_YF]

[A]
1. 0.59
2. 0.462

Please state phosphorylation enrichment for every sequence in the list that follows.
1. MGIMLYGVDSR [PKD1_Y3143_V3138M]
2. APSGNYVACGG [GNB1_Y111]
3. ENAGYYFRISA
4. RKIMGYSIRTI [IDS_Y490_I485R]
5. PTTKSYFPHFD [HBA1_Y43_T42S]
6. FLQTDDTSQVS [FRMPD1_Y846_Y846D]

[A]
0.467
0.363
0.488
0.591
0.431
0.481

Please state phosphorylation enrichment for every sequence in the list that follows.
1. VNNAVYGIDAM [EIF3J_Y143]
2. VHFARYLAMNK [HARS1_Y138_P134H]

[A]
1: 1.09; 2: 0.557

Please state phosphorylation enrichment for every sequence in the list that follows.
1. TGDVQYRSSVR [FREM2_Y2158]
2. GGQVFYNSEYG [FLT4_Y1333]
3. PMWHPYKADVT [TP53TG5_Y255_V257A]
4. PLDGEYFTLQI [TP53_Y327]

[A]
1: 0.331; 2: 0.456; 3: 0.565; 4: 4.48
